I'd appreciate it if you could supply pIC50 values for the items below.
Target: PI3K alfa (Homo sapiens, UniProt P42336)
Construct: for the p110-a subunit (with a deletion of the first 20 amino acids); His tag (C); made in house; host or cells: baculovirus; Tn5 (Trichoplusia ni) or TiniPro insect cells
Sequence (P42336 with tags, fused parts or gaps limits assumed): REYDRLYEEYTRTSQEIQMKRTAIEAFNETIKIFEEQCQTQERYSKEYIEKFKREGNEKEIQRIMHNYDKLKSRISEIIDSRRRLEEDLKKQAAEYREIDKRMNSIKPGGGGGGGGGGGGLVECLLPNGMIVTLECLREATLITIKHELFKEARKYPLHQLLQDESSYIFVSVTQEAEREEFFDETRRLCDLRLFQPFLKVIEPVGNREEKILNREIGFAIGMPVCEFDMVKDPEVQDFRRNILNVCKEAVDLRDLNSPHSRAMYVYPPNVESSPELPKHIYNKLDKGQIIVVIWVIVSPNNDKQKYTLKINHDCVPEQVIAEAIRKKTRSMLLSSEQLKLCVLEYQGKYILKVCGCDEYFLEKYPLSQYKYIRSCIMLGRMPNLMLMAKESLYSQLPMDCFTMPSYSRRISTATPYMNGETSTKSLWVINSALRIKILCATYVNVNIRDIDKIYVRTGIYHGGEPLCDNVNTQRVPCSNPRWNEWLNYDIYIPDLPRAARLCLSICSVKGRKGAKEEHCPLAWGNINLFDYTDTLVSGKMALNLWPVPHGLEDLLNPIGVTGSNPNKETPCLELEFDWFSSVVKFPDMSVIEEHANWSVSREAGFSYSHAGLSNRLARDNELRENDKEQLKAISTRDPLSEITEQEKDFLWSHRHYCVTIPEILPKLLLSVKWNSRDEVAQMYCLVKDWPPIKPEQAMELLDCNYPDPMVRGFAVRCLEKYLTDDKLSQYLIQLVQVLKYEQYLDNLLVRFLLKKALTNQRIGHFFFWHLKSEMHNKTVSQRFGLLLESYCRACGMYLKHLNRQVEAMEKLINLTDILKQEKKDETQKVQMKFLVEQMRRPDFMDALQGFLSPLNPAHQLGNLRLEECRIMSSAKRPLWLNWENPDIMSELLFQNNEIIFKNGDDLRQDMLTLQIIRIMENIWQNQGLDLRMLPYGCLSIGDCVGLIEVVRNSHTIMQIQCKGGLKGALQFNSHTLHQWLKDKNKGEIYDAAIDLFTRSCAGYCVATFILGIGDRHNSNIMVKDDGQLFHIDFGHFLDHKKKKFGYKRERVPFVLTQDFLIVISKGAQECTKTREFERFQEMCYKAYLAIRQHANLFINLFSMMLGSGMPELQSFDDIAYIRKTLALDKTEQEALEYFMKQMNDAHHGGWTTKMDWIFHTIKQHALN
Experiment: PI3 kinase assay (Kinase-Glo luminescence), PI3K alfa
Format: biochemical
Conditions: Enzymatic Data; read-out: PI3K alfa IC50 [umol]
Numbers only, as −log10 of the molar value.

INSERT INTO assay_data (test_smiles, assay_endpoint, test_value) VALUES
  ('COc1ccc(-c2ccc3ncc(-c4ccc(NS(C)(=O)=O)cc4)n3n2)cc1OC', 'pIC50', 6.53),
  ('NCCn1cc(-c2ccc3ncc(-c4cnc(N)c(C(F)(F)F)c4)n3n2)ccc1=O', 'pIC50', 7.24),
  ('COc1ccc(-c2ccc3ncc(-c4cnc(N)c(OC)n4)n3n2)cc1OC', 'pIC50', 8.05),
  ('O=C1CCCN1CCOc1ccc(-c2ccc3ncc(-c4cnc5[nH]ccc5c4)n3n2)cc1', 'pIC50', 7.55),
  ('COc1cc(-c2ccc3ncc(-c4cnc(N)c(C(F)(F)F)c4)n3n2)ccc1OC1CCNCC1', 'pIC50', 7.30);

List the reported pIC50 of each molecule below.
1. Nc1ncc(-c2ccc3ncc(-c4ccc(C(=O)N5CCN(CCc6ccccn6)CC5)cc4)n3n2)cc1C(F)(F)F
2. COc1cc(-c2cnc3ccc(-c4cnc(N)c(C(F)(F)F)c4)nn23)ccc1C(=O)NCCN1CCOCC1
3. Nc1ncc(-c2cnc3ccc(-c4cnc(N)c(C(F)(F)F)c4)nn23)cn1

*A*
7.34
8.05
7.82

Where do the numbers come from? From patent US20100311729A1.
